test system: SNB-19 CNS; experiment: NCI-60 one-dose screen, 48 h; settings: 10 µM unless noted
This is part of a sample that, as a whole, favours compounds with a hit. Of some 83,000 tested, about 20% had one in any assay. Activity calls are given as the source filed them. How the source made its calls: active means growth percent below 10; inactive means the rest.
Outcomes: true (1) for active, false (0) for inactive

>  <mol-smiles>
CNCCCNc1ccnc2cc(Cl)ccc12

>  <subject-of-test>
SNB-19 CNS

>  <category>
true (1)

$$$$
>  <mol-smiles>
COc1cc(/C=C/c2ccc3c(Br)cc(Br)c(O)c3n2)ccc1O

>  <subject-of-test>
SNB-19 CNS

>  <category>
false (0)

$$$$
>  <mol-smiles>
Cc1ccc(NC(=O)c2nc(S(C)(=O)=O)oc2-c2ccc(F)cc2)cc1Nc1ccc2ncn(C)c(=O)c2c1

>  <subject-of-test>
SNB-19 CNS

>  <category>
false (0)

$$$$

###

test system: MDA-MB-231 breast; experiment: NCI-60 one-dose screen, 48 h (100 = growth as untreated, 0 = no growth, -100 = all killed); conditions: 10 µM unless noted
The panel holds about 83,000 compounds, 20% with a hit somewhere; the sample as a whole holds those more often.
Binary classification by growth, with 90% as an inclusive lower bound for TRUE; all other cases are FALSE.

>  <compound>
COc1ccc(C2CC(c3ccc(Nc4ccnc5cc(Cl)ccc45)cc3)=NN2c2ccccc2)cc1 (centres undefined)

>  <category>
TRUE

$$$$
>  <compound>
O=C(c1ccccc1)N(CCCCl)C(=O)N(CCCCl)C(=O)c1ccccc1

>  <category>
FALSE

$$$$
>  <compound>
COc1c(-c2cc(-c3ccc(C)o3)[nH]c(=O)n2)c(O)cc2occc12

>  <category>
FALSE

$$$$
>  <compound>
CCN(CC)CCC(CNc1ccnc2cc(Cl)ccc12)c1ccc(O)cc1 (centres undefined)

>  <category>
FALSE

$$$$
>  <compound>
O=C(OCc1ccc2c(Cl)cc(Cl)c(O)c2n1)c1cc2ccccc2[nH]1

>  <category>
FALSE

$$$$
>  <compound>
CC(C)NC(=O)OCC#CCOC(=O)NC(C)C

>  <category>
TRUE

$$$$
>  <compound>
Cc1cc(Cl)c2ccc(N(C)C)cc2n1

>  <category>
TRUE

$$$$
>  <compound>
CC1CN(CCCOC(=O)Nc2ccc(Cl)cc2)CCN1C(C)(C)C (centres undefined)

>  <category>
TRUE

$$$$
>  <compound>
O=C(NCCNC(=O)c1cc(S(=O)(=O)NCCc2ccccc2)c(O)c(O)c1O)c1cc(S(=O)(=O)NCCc2ccccc2)c(O)c(O)c1O

>  <category>
FALSE

$$$$
>  <compound>
COc1cc2cc(C(=O)Nc3ccccc3)c(N)nc2cc1OC

>  <category>
FALSE

$$$$
>  <compound>
COc1cc(C)c2c(=O)c3c(oc2c1)C(=O)c1c(O)c(OC)cc(O)c1C3=O

>  <category>
FALSE

$$$$
>  <compound>
C#CCNC(=S)N/N=C(\C)c1ccccn1

>  <category>
FALSE

$$$$

###

Quick list: growth per entry.
test system: SK-MEL-28 melanoma; test: NCI-60 one-dose screen, 48 h (100 = growth as untreated, 0 = no growth, -100 = all killed); settings: 10 µM unless noted
The panel holds about 83,000 compounds, 20% with a hit somewhere; the sample as a whole holds those more often.

>  <molecule>
C=CCn1c(C)nc2cc(Nc3nc(Nc4ccc5nc(C)n(CC=C)c5c4)nc4ccccc34)ccc21

>  <subject-of-test>
SK-MEL-28 melanoma

>  <growth / %>
106

$$$$
>  <molecule>
COc1ccc(-c2[nH]nc(N)c2-c2cc(OC)c(OC)c(OC)c2)cc1

>  <subject-of-test>
SK-MEL-28 melanoma

>  <growth / %>
47.8

$$$$
>  <molecule>
COc1cc2cc(C(=O)Nc3ccccc3)c(N)nc2cc1OC

>  <subject-of-test>
SK-MEL-28 melanoma

>  <growth / %>
-98.3

$$$$
>  <molecule>
COc1ccc(-c2n[nH]nc2-c2cc(OC)c3c(c2)OCO3)cc1

>  <subject-of-test>
SK-MEL-28 melanoma

>  <growth / %>
46.3

$$$$
>  <molecule>
C/C(=C\C(=N\N=C(N)N)c1ccc(Cl)cc1)c1ccc(Cl)cc1

>  <subject-of-test>
SK-MEL-28 melanoma

>  <growth / %>
-81

$$$$
>  <molecule>
COc1cc(Nc2ccnc3ccc(Br)cc23)cc(OC)c1OC

>  <subject-of-test>
SK-MEL-28 melanoma

>  <growth / %>
58.3

$$$$
>  <molecule>
CC(=O)[C@@]1(O)[C@H](C)C[C@H]2[C@@H]3C=C(C)C4=Cc5c(cnn5-c5ccccc5)C[C@]4(C)[C@H]3[C@@H](O)C[C@@]21C

>  <subject-of-test>
SK-MEL-28 melanoma

>  <growth / %>
43.6

$$$$
>  <molecule>
COc1ccc(-c2nn(-c3cccc(Cl)c3)cc2/C=C2\C(=N)N(c3ccccc3)N=C2N)cc1

>  <subject-of-test>
SK-MEL-28 melanoma

>  <growth / %>
32.8

$$$$
>  <molecule>
COc1cc(C)cc2oc3oc(=O)c(-c4csc(-c5cc6ccccc6oc5=O)n4)cc3c(=O)c12

>  <subject-of-test>
SK-MEL-28 melanoma

>  <growth / %>
109

$$$$
>  <molecule>
c1ccc2c(c1)cnc1ccccc12

>  <subject-of-test>
SK-MEL-28 melanoma

>  <growth / %>
118

$$$$
>  <molecule>
Cc1ccc(NC(=O)c2[nH]c(SCCN(C)C)nc2-c2ccc(F)cc2)cc1C#Cc1cnc2cccnn12

>  <subject-of-test>
SK-MEL-28 melanoma

>  <growth / %>
-72.4

$$$$
>  <molecule>
CC(C)COC(=O)NC(C)(C)C

>  <subject-of-test>
SK-MEL-28 melanoma

>  <growth / %>
113

$$$$
>  <molecule>
Cc1cc(-c2nnc(/C=C/c3ccc4c(c3)OCO4)o2)n[nH]1

>  <subject-of-test>
SK-MEL-28 melanoma

>  <growth / %>
71.5

$$$$
>  <molecule>
COc1ccc(/C=C2\N=C(c3cccnc3)N(c3ccccc3)NC2=O)cc1

>  <subject-of-test>
SK-MEL-28 melanoma

>  <growth / %>
129

$$$$
>  <molecule>
Cc1c(C)c(C)c([N+](=O)[O-])c([N+](=O)[O-])c1C

>  <subject-of-test>
SK-MEL-28 melanoma

>  <growth / %>
104

$$$$
>  <molecule>
O=NN(CC(=O)NNc1ccccc1)CC(=O)NNc1ccccc1

>  <subject-of-test>
SK-MEL-28 melanoma

>  <growth / %>
95.5

$$$$
>  <molecule>
COc1ccc(C2C=C(c3ccc(Cl)cc3)N=C3SC=CN32)cc1 (centres undefined)

>  <subject-of-test>
SK-MEL-28 melanoma

>  <growth / %>
97.6

$$$$
>  <molecule>
COc1ccc(/C(=C\c2ccc3c(c2)OCO3)C(=O)Nc2nc3ccccc3s2)cc1

>  <subject-of-test>
SK-MEL-28 melanoma

>  <growth / %>
104

$$$$
>  <molecule>
Nc1nc2ccc([C@@H]3Nc4ccc5[nH]ncc5c4[C@H]4[C@H]5CCC(C5)[C@H]43)cc2s1

>  <subject-of-test>
SK-MEL-28 melanoma

>  <growth / %>
23.8

$$$$
>  <molecule>
CCCCCNCCCCCNc1cc(OC)cc2cccnc12

>  <subject-of-test>
SK-MEL-28 melanoma

>  <growth / %>
91.9

$$$$
>  <molecule>
Nc1nonc1-c1nc2ccccc2n1Cc1ccc(F)cc1

>  <subject-of-test>
SK-MEL-28 melanoma

>  <growth / %>
61.3

$$$$
>  <molecule>
Cc1cc(C)c(C#N)c(SCC(=O)c2sc3c(C#N)c(C)cc(C)[n+]3c2[O-])n1

>  <subject-of-test>
SK-MEL-28 melanoma

>  <growth / %>
30.3

$$$$
>  <molecule>
COc1cc(C2CC(c3cccc(Nc4ccnc5cc(Cl)ccc45)c3)=NN2c2ccc(Cl)cc2)cc(OC)c1OC (centres undefined)

>  <subject-of-test>
SK-MEL-28 melanoma

>  <growth / %>
51.4

$$$$
>  <molecule>
N#Cc1c(N)c(C(=O)c2ccc3c(c2)OCCO3)n2c1CCCC2

>  <subject-of-test>
SK-MEL-28 melanoma

>  <growth / %>
44

$$$$

###

test system: A498 renal; test: NCI-60 one-dose screen, 48 h; details: 10 µM unless noted
About 83,000 compounds went through this panel and 20% of them were active in at least one assay; those are over-represented in the sample as a whole. Active and inactive are the calls of the source. How the source made its calls: active means growth percent below 10; inactive means the rest.
Outcomes: YES for active, NO for inactive

>  <molecule>
NC(=Nc1ccccc1)SCCCSC(N)=Nc1ccccc1

>  <category>
NO

$$$$
>  <molecule>
CC(=O)[C@H]1CC[C@H]2[C@@H]3CC[C@H]4CC=CC[C@]4(C)[C@H]3CC[C@]12C

>  <category>
NO

$$$$
>  <molecule>
O=C1/C(=C\c2cccn2Cc2ccc(Cl)cc2)c2ccccc2N1c1c(Cl)cccc1Cl

>  <category>
NO

$$$$
>  <molecule>
CC1(C)CC[C@]2(C(=O)N3CCNCC3)CC[C@]3(C)C(=CC[C@@H]4[C@@]5(C)CCC(=O)C(C)(C)[C@@H]5CC[C@]43C)[C@@H]2C1

>  <category>
NO

$$$$
>  <molecule>
CN1CCN(Cc2ccc(NC(=O)c3cnc(F)c(C#Cc4cnc(N)c5ncccc45)c3)cc2C(F)(F)F)CC1

>  <category>
YES

$$$$
>  <molecule>
Cc1[nH]n(C(=O)c2ccncc2)c(=O)c1N=Nc1ccc(O)c(C(=O)O)c1

>  <category>
NO

$$$$
>  <molecule>
CC(=O)OC1Oc2cc(C)c(C)cc2-c2oc(=O)c(-c3ccc(F)cc3)cc21 (centres undefined)

>  <category>
NO

$$$$
>  <molecule>
Cc1ccc(O)c(Cc2ccccc2)c1

>  <category>
NO

$$$$
>  <molecule>
O=C(C(=O)c1cccnc1)c1cccnc1

>  <category>
NO

$$$$
